# Activity per record follows
- Test system: Rattus norvegicus
- assay protocol: Antinociceptive activity in Wistar albino rat assessed as latency in reaction time required for thermal stimulus-induced tail flicking at 30 mg/kg, po after 120 mins by analgesiometric analysis (RVb=3.33 +/- 0.21 seconds)
- Type: functional
Write the answer as a number in s, unit excluded.

Worked set:
| compound | units of measure | Activity |
| --- | --- | --- |
| COc1ccc(-c2nn(-c3ccccc3)cc2-c2cc(-c3ccccc3)on2)cc1 | s | 5.83 |
| CCOc1ccc(-c2nn(-c3ccccc3)cc2C2=NOC3C(=O)N(C)C(=O)C23)cc1 (centres undefined) | s | 6 |
| CCOc1ccc(-c2nn(-c3ccccc3)cc2C2=NOC3C(=O)N(c4ccccc4)C(=O)C23)cc1 (centres undefined) | s | 6.16 |

# evaluate next
For reference, reported Activity for O=C1C2ON=C(c3cn(-c4ccccc4)nc3-c3ccc(Cl)cc3)C2C(=O)N1c1ccccc1 (centres undefined) stands at 6

Just for reference, ChEMBL document CHEMBL1158448 is where these values come from.
